Measured values drawn from patent US20210147523A1 for this set.

Target: T1, Mutant 3 of human SPNS2 (FLAG tag inserted in extracellular loop 7) (human, UniProt Q8IVW8 1-549)
T1 construct: on HEK293 cells; also called extracellular loop 7 mutant
T1 sequence: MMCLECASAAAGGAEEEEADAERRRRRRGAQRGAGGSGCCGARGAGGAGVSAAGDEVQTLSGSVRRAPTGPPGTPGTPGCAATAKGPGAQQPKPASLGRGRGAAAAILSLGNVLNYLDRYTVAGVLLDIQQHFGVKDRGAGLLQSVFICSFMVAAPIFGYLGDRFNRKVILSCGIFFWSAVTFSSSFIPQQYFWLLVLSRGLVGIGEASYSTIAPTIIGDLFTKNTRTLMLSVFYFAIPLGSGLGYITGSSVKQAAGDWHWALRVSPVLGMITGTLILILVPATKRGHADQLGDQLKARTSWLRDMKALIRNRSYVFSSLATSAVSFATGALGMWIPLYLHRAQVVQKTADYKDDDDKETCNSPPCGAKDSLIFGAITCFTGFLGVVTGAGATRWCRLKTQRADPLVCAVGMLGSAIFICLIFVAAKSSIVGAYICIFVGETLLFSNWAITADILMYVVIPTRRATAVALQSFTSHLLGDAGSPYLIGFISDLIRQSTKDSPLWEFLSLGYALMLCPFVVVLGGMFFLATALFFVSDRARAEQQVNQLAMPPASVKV
Experiment: flow cytometry, FLAG-insertion mutant
readout.name: FITC+/Alexa 647+ cell rate ratio

Which measured FITC+/Alexa 647+ cell rate ratio value corresponds to 89-1207D (antibody, IgG2b, V domains shown) VH: EVQLVGSGGGLVQPGRSMKLSCEASGFTFSNHYMAWVRQAPTKGLEWVATISTGGGNTYYRDSVKGRFTISRDNARSILSLQMDSLRSEDTATYYCARQDYSNYMGGFAYWGQGTLVTVSS VL: QFVLTQPNSVSTNLGSTVKLSCTRSIGNIGNNYVNWYKQYEGRSPTTMIYRDDERPDGVPDRFSGSIDRSSNSALLTINNVQTEDEADYFCQSFSSGMFIFGGGTKLTVL ?
≥ 0.5 ratio
